These compounds were tested on Adenosine receptor A2a (Rattus norvegicus, UniProt P30543); Ki is the recorded read-out.
Sequence (P30543 whole entry): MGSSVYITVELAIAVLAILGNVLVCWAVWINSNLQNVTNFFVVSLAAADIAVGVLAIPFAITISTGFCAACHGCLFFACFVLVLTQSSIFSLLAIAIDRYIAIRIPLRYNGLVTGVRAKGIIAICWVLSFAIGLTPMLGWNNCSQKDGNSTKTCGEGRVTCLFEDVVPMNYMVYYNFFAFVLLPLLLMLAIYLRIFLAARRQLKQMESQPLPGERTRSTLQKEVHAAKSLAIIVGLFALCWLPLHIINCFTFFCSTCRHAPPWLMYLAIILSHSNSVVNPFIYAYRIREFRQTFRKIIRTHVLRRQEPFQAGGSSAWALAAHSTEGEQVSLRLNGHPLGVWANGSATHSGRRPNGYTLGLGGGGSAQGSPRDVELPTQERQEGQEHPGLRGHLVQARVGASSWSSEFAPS
parameter: Ki (nM)

Take a look at these entries with their results.
[[record]]
compound = "CCNC(=O)[C@H]1OC(n2cnc3c(N)nc(C#Cc4ccc(F)cc4)nc32)[C@H](O)[C@@H]1O (some centres undefined)"
observed_result = 81.4

[[record]]
compound = "CCNC(=O)[C@H]1OC(n2cnc3c(N)nc(C#Cc4ccncc4)nc32)[C@H](O)[C@@H]1O (some centres undefined)"
observed_result = 87


(I) CCNC(=O)[C@H]1OC(n2cnc3c(N)nc(C#Cc4ccccn4)nc32)[C@H](O)[C@@H]1O (some centres undefined)
(II) CCNC(=O)[C@H]1OC(n2cnc3c(N)nc(C#Cc4ccco4)nc32)[C@H](O)[C@@H]1O (some centres undefined)
Name the one with the greater Ki value, either I or II as given. Answer format: the label of the selected item. II
(II: 130 nM, I: 89.8 nM)

---

target: Adenosine receptor A1 (Rattus norvegicus); assay: Functional activity against adenosine A1 receptor from rat atria.
Sequence (P25099 whole entry): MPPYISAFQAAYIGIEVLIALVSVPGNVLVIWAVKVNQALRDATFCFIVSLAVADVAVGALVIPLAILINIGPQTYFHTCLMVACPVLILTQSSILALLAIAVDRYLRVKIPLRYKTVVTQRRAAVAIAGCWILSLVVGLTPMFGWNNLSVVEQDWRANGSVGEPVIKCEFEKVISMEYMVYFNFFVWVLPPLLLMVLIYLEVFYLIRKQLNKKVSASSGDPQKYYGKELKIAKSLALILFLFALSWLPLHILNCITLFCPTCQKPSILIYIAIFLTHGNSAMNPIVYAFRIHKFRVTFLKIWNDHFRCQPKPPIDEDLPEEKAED
parameter: EC50 (µM)

Take a look at these entries with their results.
[[record]]
molecule = "CCNC(=O)[C@H]1OC(n2cnc3c(N)nc(C#CCc4ccccc4)nc32)[C@H](O)[C@@H]1O (stereo not given in full)"
parameter = "EC50"
observed_result = 0.164

[[record]]
molecule = "CCNC(=O)[C@H]1OC(n2cnc3c(N)nc(C#CCn4ccnc4)nc32)[C@H](O)[C@@H]1O (stereo not given in full)"
parameter = "EC50"
observed_result = 3.14

[[record]]
molecule = "CCNC(=O)[C@H]1OC(n2cnc3c(N)nc(C#CCN4CCSCC4)nc32)[C@H](O)[C@@H]1O (stereo not given in full)"
parameter = "EC50"
observed_result = 0.306

[[record]]
molecule = "CCNC(=O)[C@H]1OC(n2cnc3c(N)nc(C#Cc4ccccn4)nc32)[C@H](O)[C@@H]1O (stereo not given in full)"
parameter = "EC50"
observed_result = 0.84

[[record]]
molecule = "CCNC(=O)[C@H]1O[C@@H](n2cnc3c(N)nc(C#CCCCc4ccccc4)nc32)[C@H](O)[C@@H]1O"
parameter = "EC50"
observed_result = 6.48

[[record]]
molecule = "CCNC(=O)[C@H]1OC(n2cnc3c(N)nc(C#CCN4CCCCC4)nc32)[C@H](O)[C@@H]1O (stereo not given in full)"
parameter = "EC50"
observed_result = 0.322

[[record]]
molecule = "CCNC(=O)[C@H]1OC(n2cnc3c(N)nc(C#Cc4nccs4)nc32)[C@H](O)[C@@H]1O (stereo not given in full)"
parameter = "EC50"
observed_result = 7.16

[[record]]
molecule = "CCNC(=O)[C@H]1OC(n2cnc3c(N)nc(C#CCN4CCN(C)CC4)nc32)[C@H](O)[C@@H]1O (stereo not given in full)"
parameter = "EC50"
observed_result = 0.877


(I) CCNC(=O)[C@H]1OC(n2cnc3c(N)nc(C#CCN4CCOCC4)nc32)[C@H](O)[C@@H]1O (stereo not given in full)
(II) CCNC(=O)[C@H]1OC(n2cnc3c(N)nc(C#Cc4ccc(C)cc4)nc32)[C@H](O)[C@@H]1O (stereo not given in full)
Name the one with the greater EC50 value, either I or II as given. Answer format: the label of the selected item. II
(II: 8.53 µM, I: 0.358 µM)

---

These molecules were tested on Adenosine receptor A2a (Rattus norvegicus); pEC50 is the recorded read-out.
pEC50: −log10 of the molar value.
parameter: pEC50

[[record]]
molecule = "CCNC(=O)[C@H]1OC(n2cnc3c(N)nc(C#Cc4ccc(C=O)cc4)nc32)[C@H](O)[C@@H]1O (stereo partly drawn)"
parameter = "pEC50"
observed_result = 6.96


(P) CCNC(=O)[C@H]1OC(n2cnc3c(N)nc(C#Cc4ccc(C(F)(F)F)cc4)nc32)[C@H](O)[C@@H]1O (stereo partly drawn)
(Q) CCNC(=O)[C@H]1OC(n2cnc3c(N)nc(C#CCN4CCOCC4)nc32)[C@H](O)[C@@H]1O (stereo partly drawn)
Name the one with the greater pEC50 value, either P or Q as given. Answer format: the label of the selected item. Q
(Q: 6.27, P: 5.52)

(I) CCNC(=O)[C@H]1O[C@@H](n2cnc3c(N)nc(C#Cc4ccccc4)nc32)[C@H](O)[C@@H]1O
(II) CCNC(=O)[C@H]1OC(n2cnc3c(N)nc(C#Cc4cccc(C=O)c4)nc32)[C@H](O)[C@@H]1O (stereo partly drawn)
When the recorded pEC50 values are compared, which is smaller: that of I or that of II ? Answer format: the label of the selected item. II

(A) CCNC(=O)[C@H]1OC(n2cnc3c(N)nc(C#Cc4ccc(N)cc4)nc32)[C@H](O)[C@@H]1O (stereo partly drawn)
(B) CCNC(=O)[C@H]1OC(n2cnc3c(N)nc(C#CCN4CCCCC4)nc32)[C@H](O)[C@@H]1O (stereo partly drawn)
Name the one with the greater pEC50 value, either A or B as given. Answer format: the label of the selected item. B

(I) CCNC(=O)[C@H]1OC(n2cnc3c(N)nc(C#Cc4ccc(C)cc4)nc32)[C@H](O)[C@@H]1O (stereo partly drawn)
(II) CCNC(=O)[C@H]1OC(n2cnc3c(N)nc(C#Cc4cccnc4)nc32)[C@H](O)[C@@H]1O (stereo partly drawn)
When the recorded pEC50 values are compared, which is smaller: that of I or that of II ? Answer format: the label of the selected item. I

---

molecular target: UniProt P30543
parameter: EC50 (nM)

Take a look at these entries with their results.
[[record]]
compound = "CCNC(=O)[C@H]1OC(n2cnc3c(N)nc(C#CCCc4ccccc4)nc32)[C@H](O)[C@@H]1O (some centres undefined)"
observed_result = 210

[[record]]
compound = "CCNC(=O)[C@H]1OC(n2cnc3c(N)nc(C#CCN4CCN(C)CC4)nc32)[C@H](O)[C@@H]1O (some centres undefined)"
observed_result = 408


(A) CCNC(=O)[C@H]1OC(n2cnc3c(N)nc(C#Cc4ccc(C(C)=O)cc4)nc32)[C@H](O)[C@@H]1O (some centres undefined)
(B) CCCCC#Cc1nc(N)c2ncn([C@@H]3O[C@H](C(=O)NCC)[C@@H](O)[C@H]3O)c2n1
(C) CCNC(=O)[C@H]1OC(n2cnc3c(N)nc(C#Cc4ccccn4)nc32)[C@H](O)[C@@H]1O (some centres undefined)
(D) CCNC(=O)[C@H]1OC(n2cnc3c(N)nc(C#Cc4ccc(OC)cc4)nc32)[C@H](O)[C@@H]1O (some centres undefined)
hey, can you rank those compounds up there by EC50? biggest number first please Respond with an ordered listing of the labels, as requested. D, A, B, C
(D: 3480 nM, A: 1670 nM, B: 596 nM, C: 243 nM)

---

molecular target: Adenosine receptor A2a (Rattus norvegicus)
pEC50: −log10 of the molar value.
parameter: pEC50

Take a look at these entries with their results.
[[record]]
molecule = "CCNC(=O)[C@H]1OC(n2cnc3c(N)nc(C#Cc4ccc(F)cc4)nc32)[C@H](O)[C@@H]1O (stereo partly drawn)"
parameter = "pEC50"
observed_result = "< 5.00"

[[record]]
molecule = "CCNC(=O)[C@H]1OC(n2cnc3c(N)nc(C#Cc4ccncc4)nc32)[C@H](O)[C@@H]1O (stereo partly drawn)"
parameter = "pEC50"
observed_result = "< 5.00"


State, for Adenosine receptor A2a (Rattus norvegicus), measured pEC50 of the molecule listed here: CCNC(=O)[C@H]1OC(n2cnc3c(N)nc(C#Cc4ccco4)nc32)[C@H](O)[C@@H]1O (stereo partly drawn) < 5.00
